- System: MCF7
- Assay: Antiproliferative activity against human MCF7 cells after 24 hrs by MTT assay
- Format: functional, cell-based
- Measurement parameters: MCF7, 24 h
For each of the compounds below, state its IC50.
I only need the number, in µM, no unit after it.

Memo: CC(C)=CCC12OC(C)(C)C3CC(C=C4C(=O)c5cc(O)ccc5OC431)C2=O (configuration not stated) , reported IC50: 20.6

The value of IC50 measured for the compound CC(C)=CCC12OC(C)(C)C3CC(C=C4C(=O)c5ccc(O)cc5OC431)C2=O (configuration not stated) turned out to be 12.4

Lookup result for CC(C)=CCC[C@]1(C)C=Cc2c(O)c3c(c(CC=C(C)C)c2O1)O[C@]12C(=C[C@@H]4C[C@H]1C(C)(C)O[C@@]2(C/C=C(/C)C(=O)O)C4=O)C3=O ; measured IC50: 2.19

The recorded IC50 for entry CC(C)=CCC12OC(C)(C)C3CC(C=C4C(=O)c5ccccc5OC431)C2=O (configuration not stated) equals 13.9

Lab note: CC(C)=CCC12OC(C)(C)C3CC(C=C4C(=O)c5cccc(O)c5OC431)C2=O (configuration not stated) gave IC50 of 19.4

Consider CC(C)=CCC12OC(C)(C)C3CC(C=C4C(=O)CC(C)OC431)C2=O (configuration not stated) . Its measured IC50 is 68.3

For reference, reported IC50 for CC(C)=CCC12OC(C)(C)C3CC(C=C4C(=O)c5c(O)cccc5OC431)C2=O (configuration not stated) stands at 9.16

The values you see were collected from ChEMBL document CHEMBL1759837.
